// provenance: patent US10251952B2

Target: human tau(pS422) (Homo sapiens, UniProt P10636, S739X)
Experiment: BIAcore kinetic screening and kinetic rates of humanized VH/VL combinations
Format: binding
Settings: 25 °C; VH14 or VH20 with VL variants
TEST_READOUT: kd

INSERT INTO measurements (molecule, test_readout, assay_result) VALUES
  ('VH14 with VL35: anti-human tau(pS422) antibody; VH SEQ ID NO: 50, VL SEQ ID NO: 41 (antibody, V domains shown, humanized sequence) VH: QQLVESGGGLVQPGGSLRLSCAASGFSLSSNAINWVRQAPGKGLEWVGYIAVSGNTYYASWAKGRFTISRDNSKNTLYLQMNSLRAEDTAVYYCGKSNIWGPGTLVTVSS VL: AIQMTQSTSSLSASVGDRVTITCRSSQSVRTNRLAWFQQKPGQPPKRLIYSASTLDFGVPSRFSGSGSGTEFTLTISSLQPEDFATYYCLGYFDSSIADIVAFGGGTKVEIK', 'kd', '0.011 s⁻¹');
